// provenance: patent US20190322748A1

# Assay target: T1, Tim3-ECD-His-Biotin (human, UniProt Q8TDQ0 22-202, biotinylated with BirA Ligase, site not stated)
# T1 construct: also called human Tim3 (ELISA); Biochem Human
# Assay protocol: ELISA on human Tim3 (values in relation to the samples max value)
Reported metric: EC50 (µg/mL)
The answer is to be given in µg/mL; state only the numeric part.

Q: Quickly give me recorded EC50 for Tim3_0018MutNS (antibody, V domains shown) VH: QVTLKESGPGILQPSQTLSLTCSFSGFSLSTSGMSVGWIRQPSGKGLEWLAHIWLNDDVFFNPALKRRLTISKDTSNNQVFLQIASVVTADTATYYCVRANGYLYALDYWGQGISVTVSS VL: QIVLTQSPAIMSASPGQKVTITCSASSSVSYTQWYQQKLGSSPKLWIYDAFKLAPGVPARFSGSGTGTSYSLTISSMEAEDAASYFCHQWSSYPWTFGGGTKLEIK
Result: 0.0103
